Source: patent US7101878B1

tested system: ILRA (CXCR-1) (Homo sapiens)
Sequence (P25024 whole entry, species assumed): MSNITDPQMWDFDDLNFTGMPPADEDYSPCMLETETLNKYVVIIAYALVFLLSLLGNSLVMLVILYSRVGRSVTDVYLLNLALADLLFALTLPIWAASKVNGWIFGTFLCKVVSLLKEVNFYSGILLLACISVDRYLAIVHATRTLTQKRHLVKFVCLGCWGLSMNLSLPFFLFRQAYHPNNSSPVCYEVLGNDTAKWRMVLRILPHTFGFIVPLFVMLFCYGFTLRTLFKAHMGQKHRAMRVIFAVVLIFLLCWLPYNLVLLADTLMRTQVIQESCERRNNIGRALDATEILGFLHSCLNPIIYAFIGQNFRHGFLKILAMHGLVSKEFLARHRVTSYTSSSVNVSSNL
experiment: Selectivity: ILRA (CXCR-1) / IL8
pKi: −log10 of the molar value.
assay metric: pKi

• COc1cccc(OC)c1NC(=O)c1ccc(Cc2cc3c(cc2C)C(C)(C)CCC3(C)C)o1 = < 5.00

----------
Measured log10(Cmax), listed per entry for reference.
experiment: Pharmacokinetic studies / bioavailability in rats
Assay type: in vivo, rat
test context: female, rat, plasma, po, 10 mg/kg, rat female; p.o. 10 mg/kg; 5 mg/ml solution in 10% DMSO 10% cremophor 80% saline
assay metric: log10(Cmax) (log10 of the value in nM)

• COc1cc(NS(C)(=O)=O)c(NC(=O)c2ccc(Cc3cc4c(cc3C)C(C)(C)CCC4(C)C)o2)c(OC)c1 = 1.85
• COc1cc2c(cc1Cc1ccc(C(=O)Nc3c(OC)cc(OC)c(C#N)c3OC)o1)C(C)(C)CCC2(C)C = 2.00
• COc1cc(C)c(Cl)c(C)c1Cc1ccc(C(=O)Nc2c(OC)cccc2OC)o1 = 2.53
• COc1cc2c(cc1Cc1ccc(C(=O)NCc3cccc(CNc4ccnc(NC[C@H]5CCCO5)n4)c3)o1)C(C)(C)CCC2(C)C (stereo in doubt) = 1.90
• Cc1cc2c(cc1Cc1ccc(C(=O)NCc3ccc(CNc4ncccn4)cc3)o1)C(C)(C)CCC2(C)C = 2.36
• COc1cc(OC)c(NC(=O)c2ccc(Cc3cc4c(cc3C)C(C)(C)CC4(C)C)o2)c(OC)c1 = 2.56
• COc1cc(OC)c(NC(=O)c2ccc(Cc3cc(C(C)(C)C)ccc3C)o2)c(OC)c1 = 2.98

----------
tested system: human GnRH receptor (Homo sapiens, UniProt P30968)
Construct: expressed in transfected cells; host or cells: HEK 293 (hGnRH-R/293, from Dr. Stuart Sealfon)
Sequence (P30968 1-328): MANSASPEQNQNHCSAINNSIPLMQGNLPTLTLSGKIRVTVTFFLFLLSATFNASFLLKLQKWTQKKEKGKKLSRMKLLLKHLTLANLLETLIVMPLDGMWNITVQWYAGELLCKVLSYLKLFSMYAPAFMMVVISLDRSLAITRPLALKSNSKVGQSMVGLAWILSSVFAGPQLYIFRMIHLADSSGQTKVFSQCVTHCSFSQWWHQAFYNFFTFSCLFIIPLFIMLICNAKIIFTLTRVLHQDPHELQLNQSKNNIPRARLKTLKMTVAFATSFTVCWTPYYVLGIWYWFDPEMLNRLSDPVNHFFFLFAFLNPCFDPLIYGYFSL
experiment: Radioligand binding, 125I-GnRH-A displacement, membranes of HEK 293 cells with human GnRH receptor
test context: 1 h, repeat of % Inhib. at 1 uM; read-out: Repeats @ 1 uM hGnRH
assay metric: inhibition at 1 µM (%)

- Cc1cc2c(cc1Cc1ccc(C(=O)NCc3ccc(C(C)(C)C)cc3)o1)C(C)(C)CCC2(C)C [drawing 1140]: -6
- Cc1cc2c(cc1Cc1ccc(C(=O)N3CCN(c4ncccc4C(F)(F)F)CC3)o1)C(C)(C)CCC2(C)C: -29
- Cc1cc2c(cc1Cc1ccc(C(=O)NCc3ccccc3)o1)C(C)(C)CCC2(C)C [drawing 1070]: 85
- Cc1cc2c(cc1Cc1ccc(C(=O)NCCO)o1)C(C)(C)CCC2(C)C [drawing 1178]: 1
- Cc1cc2c(cc1Cc1ccc(C(=O)NCCc3cccc(Cl)c3)o1)C(C)(C)CCC2(C)C: 21
- CC(=O)C1CCN(C(=O)c2ccc(Cc3cc4c(cc3C)C(C)(C)CCC4(C)C)o2)CC1: 66
- Cc1cc2c(cc1Cc1ccc(C(=O)NCCC(=O)NC(c3ccccc3)c3ccccc3)o1)C(C)(C)CCC2(C)C: -8
- Cc1cc2c(cc1Cc1ccc(C(=O)NCCC3CCCN3C)o1)C(C)(C)CCC2(C)C (centres unmarked) [drawing 977]: 49

----------
tested system: mouse GnRH receptor (Mus musculus, UniProt Q01776)
Construct: expressed in transfected cells; host or cells: 293 cells
Sequence (Q01776 whole entry): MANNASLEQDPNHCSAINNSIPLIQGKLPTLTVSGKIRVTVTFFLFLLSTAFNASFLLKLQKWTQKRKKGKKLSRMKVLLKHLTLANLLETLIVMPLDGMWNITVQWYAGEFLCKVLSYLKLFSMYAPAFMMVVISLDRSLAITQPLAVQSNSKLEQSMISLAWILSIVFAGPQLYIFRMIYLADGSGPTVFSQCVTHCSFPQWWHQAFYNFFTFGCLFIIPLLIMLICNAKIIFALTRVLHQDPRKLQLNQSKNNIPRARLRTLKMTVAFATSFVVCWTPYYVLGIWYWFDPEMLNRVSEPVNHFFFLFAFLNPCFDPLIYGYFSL
experiment: Radioligand binding, 125I-GnRH-A, 293 cells expressing mouse GnRH receptors
test context: read-out: mGnRH IC50
pIC50: −log10 of the molar value.
# pIC50 >= 8 gives yes (1), anything below gives no (0)

- CC(=O)c1cccc(NC(=O)c2ccc(Cc3cc4c(cc3C)C(C)(C)CCC4(C)C)o2)c1: no (0)
- COc1ccc(CNC(=O)c2ccc(Cc3cc4c(cc3C)C(C)(C)CCC4(C)C)o2)cc1: no (0)
- COc1cccc(OC)c1NC(=O)c1ccc(Cc2cc3c(cc2C)C(C)(C)CCC3(C)C)o1: no (0)
- Cc1cc2c(cc1Cc1ccc(C(=O)NCC3CCCCC3)o1)C(C)(C)CCC2(C)C: no (0)
- Cc1cc2c(cc1Cc1ccc(C(=O)Nc3cccc4ncccc34)o1)C(C)(C)CCC2(C)C: no (0)
- COc1cc(OC)c(NC(=O)c2ccc(Cc3cc4c(cc3C)CCCC4(C)C)o2)c(OC)c1: yes (1)

----------
tested system: human GnRH receptor (Homo sapiens, UniProt P30968)
Construct: expressed in transfected cells; host or cells: HEK 293 (hGnRH-R/293, from Dr. Stuart Sealfon)
experiment: Radioligand binding, 125I-GnRH-A displacement, membranes of HEK 293 cells with human GnRH receptor
test context: 1 h, repeat of % Inhib. at 1 uM; read-out: Repeats @ 1 uM hGnRH
Measured inhibition at 1 µM, listed per entry for reference.
assay metric: inhibition at 1 µM (%)

* Cc1cc2c(cc1Cc1ccc(C(=O)NCCCN3CCOCC3)o1)C(C)(C)CCC2(C)C [drawing 978] | 58
* Cc1cc2c(cc1Cc1ccc(C(=O)NCc3ccc(Cl)cc3Cl)o1)C(C)(C)CCC2(C)C [drawing 1133] | 64
* Cc1ccc(CNC(=O)c2ccc(Cc3cc4c(cc3C)C(C)(C)CCC4(C)C)o2)cc1 [drawing 1175] | 90
* Cc1cc2c(cc1Cc1ccc(C(=O)NCc3cccc(Cl)c3Cl)o1)C(C)(C)CCC2(C)C [drawing 1102] | 69

----------
Measured % Inhib. @ 1 uM hGnRH, listed per entry for reference.
tested system: human GnRH receptor (Homo sapiens)
Construct: expressed in transfected cells; host or cells: HEK 293 (hGnRH-R/293, from Dr. Stuart Sealfon)
Sequence (P30968 1-328): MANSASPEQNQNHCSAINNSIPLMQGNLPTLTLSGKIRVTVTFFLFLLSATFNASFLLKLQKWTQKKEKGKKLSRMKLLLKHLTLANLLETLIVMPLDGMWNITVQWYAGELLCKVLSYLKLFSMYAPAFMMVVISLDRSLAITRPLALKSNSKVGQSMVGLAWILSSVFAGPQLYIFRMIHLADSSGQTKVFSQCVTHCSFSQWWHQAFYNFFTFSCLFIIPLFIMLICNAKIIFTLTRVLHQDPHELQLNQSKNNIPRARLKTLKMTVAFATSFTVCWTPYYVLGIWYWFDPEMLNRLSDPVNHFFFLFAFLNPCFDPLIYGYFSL
experiment: Radioligand binding, 125I-GnRH-A displacement, membranes of HEK 293 cells with human GnRH receptor
test context: 1 uM
assay metric: % Inhib. @ 1 uM hGnRH (%)

- Cc1cc2c(cc1Cc1ccc(C(=O)N3CCN(c4ccccc4)CC3)o1)C(C)(C)CCC2(C)C [drawing 1121]: −6
- Cc1cc2c(cc1Cc1ccc(C(=O)NC(c3ccccc3)C(O)c3ccccc3)o1)C(C)(C)CCC2(C)C (stereo not shown) [drawing 1073]: −11
- Cc1cc2c(cc1Cc1ccc(C(=O)NC(c3ccccc3)c3ccccc3)o1)C(C)(C)CCC2(C)C [drawing 1071]: −6
- Cc1cc2c(cc1Cc1ccc(C(=O)NCc3nc4ccccc4[nH]3)o1)C(C)(C)CCC2(C)C [drawing 1060]: 101
- Cc1cc2c(cc1Cc1ccc(C(=O)NC(c3ccccc3)c3ccccc3)o1)C(C)(C)CCC2(C)C [drawing 1077]: −7
- Cc1cc2c(cc1Cc1ccc(C(=O)N3CCN(c4ccccc4)CC3)o1)C(C)(C)CCC2(C)C [drawing 1092]: −1
- Cc1cc2c(cc1Cc1ccc(C(=O)NCCc3c[nH]cn3)o1)C(C)(C)CCC2(C)C [drawing 1051]: 32

----------
Measured remaining activity at 10 µM, listed per entry for reference.
tested system: mouse GnRH receptor (Mus musculus)
Construct: expressed in transfected cells; host or cells: 293 cells
experiment: Radioligand binding, 125I-GnRH-A, 293 cells expressing mouse GnRH receptors
test context: 1 h, substrate remaining; 10 uM compound; closer to zero = closer to 100% inhibition; read-out: S%R 10 uM mGnRHR
assay metric: remaining activity at 10 µM (%)

- CCOC(=O)CCNC(=O)c1ccc(Cc2cc3c(cc2C)C(C)(C)CCC3(C)C)o1: 2
- Cc1cc2c(cc1Cc1ccc(C(=O)NCC3CCN(c4ccnc(Cl)n4)CC3)o1)C(C)(C)CCC2(C)C: -4
- Cc1cc2c(cc1Cc1ccc(C(=O)NCCCc3ccccc3)o1)C(C)(C)CCC2(C)C: -9
- Cc1cc2c(cc1Cc1ccc(C(=O)NC[C@@H]3CCCO3)o1)C(C)(C)CCC2(C)C: -2
- Cc1cc2c(cc1Cc1ccc(C(=O)NCCc3cccs3)o1)C(C)(C)CCC2(C)C: -4
- Cc1cc2c(cc1Cc1ccc(C(=O)N3CCC4(C)CC(C)(C)CC45CC35)o1)C(C)(C)CCC2(C)C (stereo not shown): 1
- Cc1cc2c(cc1Cc1ccc(C(=O)N3CCC(CCCC4CCN(CCO)CC4)CC3)o1)C(C)(C)CCC2(C)C: -4
- CCCCN(C)C(=O)c1ccc(Cc2cc3c(cc2C)C(C)(C)CCC3(C)C)o1: 0
- Cc1cc2c(cc1Cc1ccc(C(=O)NCCc3c[nH]c4ccc(O)cc34)o1)C(C)(C)CCC2(C)C: 17
- Cc1cc2c(cc1Cc1ccc(C(=O)NC(C)(C)CC(C)(C)C)o1)C(C)(C)CCC2(C)C: 34
- Cc1cc2c(cc1Cc1ccc(C(=O)NCCCN(C)CCCN)o1)C(C)(C)CCC2(C)C: -6
- Cc1cc2c(cc1Cc1ccc(C(=O)N3CCN(Cc4ccc(C(C)(C)C)cc4)CC3)o1)C(C)(C)CCC2(C)C: 35
- Cc1cc2c(cc1Cc1ccc(C(=O)NCCCN3CCCCC3)o1)C(C)(C)CCC2(C)C: 7
- CSCCC(CO)NC(=O)c1ccc(Cc2cc3c(cc2C)C(C)(C)CCC3(C)C)o1 (stereo not shown): -5
- Cc1cc2c(cc1Cc1ccc(C(=O)NC3(CO)CCCC3)o1)C(C)(C)CCC2(C)C: 3
- Cc1cc2c(cc1Cc1ccc(C(=O)N(C)CCC3OCCO3)o1)C(C)(C)CCC2(C)C: 5
- Cc1cc2c(cc1Cc1ccc(C(=O)NCCc3ccc(Cl)cc3)o1)C(C)(C)CCC2(C)C: 19
- COc1ccc(CCNC(=O)c2ccc(Cc3cc4c(cc3C)C(C)(C)CCC4(C)C)o2)cc1Br: 23
- Cc1cc2c(cc1Cc1ccc(C(=O)NC3CCCCC3O)o1)C(C)(C)CCC2(C)C (stereo not shown): 4
- COc1ccc(C(=O)CNC(=O)c2ccc(Cc3cc4c(cc3C)C(C)(C)CCC4(C)C)o2)cc1: 39
- Cc1cc2c(cc1Cc1ccc(C(=O)N3CCC(Cc4ccccc4)CC3)o1)C(C)(C)CCC2(C)C: 52
- Cc1cc2c(cc1Cc1ccc(C(=O)N3CCC(n4c(=O)[nH]c5ccccc54)CC3)o1)C(C)(C)CCC2(C)C: 16
- Cc1cc2c(cc1Cc1ccc(C(=O)NCCC(C)O)o1)C(C)(C)CCC2(C)C (stereo not shown): 12
- Cc1cc2c(cc1Cc1ccc(C(=O)NCCCN(C)c3ccccc3)o1)C(C)(C)CCC2(C)C: 0
- Cc1cc2c(cc1Cc1ccc(C(=O)N3CCC(C(N)=O)CC3)o1)C(C)(C)CCC2(C)C: -5
- Cc1cc2c(cc1Cc1ccc(C(=O)N3CC=CCC3)o1)C(C)(C)CCC2(C)C: 31
- Cc1cc2c(cc1Cc1ccc(C(=O)N(CCC#N)CCC#N)o1)C(C)(C)CCC2(C)C: 23
- Cc1cc2c(cc1Cc1ccc(C(=O)N3CCCC3C(=O)NC(c3ccccc3)c3ccccc3)o1)C(C)(C)CCC2(C)C (stereo not shown): 43
- COc1ccc(C(NC(=O)c2ccc(Cc3cc4c(cc3C)C(C)(C)CCC4(C)C)o2)C2CC2)cc1 (stereo not shown): 17
- Cc1cc2c(cc1Cc1ccc(C(=O)N(Cc3cccnc3)Cc3cccc(C(F)(F)F)c3)o1)C(C)(C)CCC2(C)C: 21
- Cc1cc2c(cc1Cc1ccc(C(=O)N(CCN3CCOCC3)Cc3ccccc3)o1)C(C)(C)CCC2(C)C: 9
